Field: Stability in Treated Human Saliva. Provide a value for each of the compounds that follow.
Experiment Summary: Frozen (−20° C.) short-term stability in cholestyramine-treated human saliva
Experimental Conditions: human

                                   compound  reported_value
0  C[C@H](CCC(=O)O)[C@H]1CC[C@H]2[C@@H]3[C@H](O)C[C@@H]4C[C@H](O)CC[C@]4(C)[C@H]3CC[C@]12C          2 days

Dear colleague, could you send me Stability in Treated Human Saliva for each of the items below? Thanks.
1. C[C@H](CCC(=O)O)[C@H]1CC[C@H]2[C@@H]3CC[C@@H]4C[C@H](O)CC[C@]4(C)[C@H]3CC[C@]12C
2. C[C@H](CCC(=O)O)[C@H]1CC[C@H]2[C@@H]3CC[C@@H]4C[C@H](O)CC[C@]4(C)[C@H]3C[C@H](O)[C@]12C
3. C[C@H](CCC(=O)NCC(=O)O)[C@H]1CC[C@H]2[C@@H]3[C@H](O)C[C@@H]4C[C@H](O)CC[C@]4(C)[C@H]3C[C@H](O)[C@]12C
4. C[C@H](CCC(=O)NCCS(=O)(=O)O)[C@H]1CC[C@H]2[C@@H]3CC[C@@H]4C[C@H](O)CC[C@]4(C)[C@H]3C[C@H](O)[C@]12C
5. CC(CCC(=O)NCC(=O)O)C1CCC2C3C(O)CC4CC(O)CCC4(C)C3CCC12C (stereo not shown)
6. CC(CCC(=O)NCC(=O)O)C1CCC2C3CCC4CC(O)CCC4(C)C3CC(O)C12C (stereo not shown)

Output line:
["2 days", "2 days", "2 days", "2 days", "2 days", "2 days"]

All figures here come from patent US20200138854A1.
